Just for reference, paper PMC8319832 is where these values come from.

- System: human red blood cells (hRBCs)
- assay.summary: Hemolytic activity determination
- Assay type: cell-based
- cond: peptide 25 μg ml^–1; hRBCs in 0.9% sodium chloride, 37°C, 1 h, OD540, 1% Triton X-100 = 100%; three independent experiments
Where a SMILES comes first, the peptide text is derived from it.
Label 1 when percent hRBC hemolysis is strictly below 8%; at or above that, label -1.

Record CC[C@H](C)[C@H](NC(=O)[C@H](CCCNC(=N)N)NC(=O)[C@H](CCCCN)NC(=O)[C@@H](NC(=O)[C@@H](N)Cc1ccccc1)[C@@H](C)CC)C(=O)N[C@@H](C)C(=O)N[C@@H](CCCNC(=N)N)C(=O)N[C@@H](CC(C)C)C(=O)N[C@@H](CC(C)C)C(=O)N[C@@H](CO)C(=O)N[C@@H](CCCCN)C(=O)N[C@H](C(=O)N[C@@H](Cc1ccccc1)C(N)=O)[C@@H](C)CC [Kn2(G3K_A4R)] (H-FIKRIARLLSKIF-NH2) : is its percent hRBC hemolysis strictly below 8%? -1

Record CC[C@H](C)[C@H](NC(=O)[C@H](CCCNC(=N)N)NC(=O)CNC(=O)[C@@H](NC(=O)[C@@H](N)Cc1ccccc1)[C@@H](C)CC)C(=O)N[C@@H](C)C(=O)N[C@@H](CCCNC(=N)N)C(=O)N[C@@H](CC(C)C)C(=O)N[C@@H](CC(C)C)C(=O)N[C@@H](CCCNC(=N)N)C(=O)N[C@@H](CCCCN)C(=O)N[C@H](C(=O)N[C@@H](Cc1ccccc1)C(N)=O)[C@@H](C)CC [Kn2(A4R_S10R)] (H-FIGRIARLLRKIF-NH2) : is its percent hRBC hemolysis strictly below 8%? -1

Record CC[C@H](C)[C@H](NC(=O)[C@H](CCCNC(=N)N)NC(=O)[C@H](CCCCN)NC(=O)[C@@H](NC(=O)[C@@H](N)Cc1ccccc1)[C@@H](C)CC)C(=O)N[C@@H](C)C(=O)N[C@@H](CCCNC(=N)N)C(=O)N[C@@H](CC(C)C)C(=O)N[C@@H](CC(C)C)C(=O)N[C@@H](CCCNC(=N)N)C(=O)N[C@@H](CCCCN)C(=O)N[C@H](C(=O)N[C@@H](Cc1ccccc1)C(N)=O)[C@@H](C)CC [BmKn2-7] (H-FIKRIARLLRKIF-NH2) : is its percent hRBC hemolysis strictly below 8%? 1

Record CC[C@H](C)[C@H](NC(=O)[C@H](C)NC(=O)CNC(=O)[C@@H](NC(=O)[C@@H](N)Cc1ccccc1)[C@@H](C)CC)C(=O)N[C@@H](C)C(=O)N[C@@H](CCCNC(=N)N)C(=O)N[C@@H](CC(C)C)C(=O)N[C@@H](CC(C)C)C(=O)N[C@@H](CCCNC(=N)N)C(=O)N[C@@H](CCCCN)C(=O)N[C@H](C(=O)N[C@@H](Cc1ccccc1)C(N)=O)[C@@H](C)CC [Kn2(S10R)] (H-FIGAIARLLRKIF-NH2) : is its percent hRBC hemolysis strictly below 8%? -1

Record CC[C@H](C)[C@H](NC(=O)[C@H](CCCNC(=N)N)NC(=O)CNC(=O)[C@@H](NC(=O)[C@@H](N)Cc1ccccc1)[C@@H](C)CC)C(=O)N[C@@H](C)C(=O)N[C@@H](CCCNC(=N)N)C(=O)N[C@@H](CC(C)C)C(=O)N[C@@H](CC(C)C)C(=O)N[C@@H](CO)C(=O)N[C@@H](CCCCN)C(=O)N[C@H](C(=O)N[C@@H](Cc1ccccc1)C(N)=O)[C@@H](C)CC [Kn2(A4R)] (H-FIGRIARLLSKIF-NH2) : is its percent hRBC hemolysis strictly below 8%? -1
